Entries and their measured Multiples of increased sweetness to minor-type brazzein follow.
tested on: human sense of taste; assay: Sweetness measured by human sense of taste (20 trained subjects, minimum concentration at which sweetness is first sensed); format: in vivo; conditions: primary brazzein variants, relative to minor-type brazzein
measured metric: Multiples of increased sweetness to minor-type brazzein

- substance: "R42E: primary brazzein variant: Arg at position 42 of minor-type brazzein substituted with Glu (DKCKKVYENYPVSKCQLANQCNYDCKLRKHARSGECFYDEKENLQCICDYCEY; Brazzein(R42E)) [Brazzein R42E]"
  measured: 0.05
- substance: "R42H: primary brazzein variant: Arg at position 42 of minor-type brazzein substituted with His (DKCKKVYENYPVSKCQLANQCNYDCKLRKHARSGECFYDEKHNLQCICDYCEY; Brazzein(R42H)) [Brazzein R42H]"
  measured: 0.16
- substance: "K5D: primary brazzein variant: Lys at position 5 of minor-type brazzein substituted with Asp (DKCKDVYENYPVSKCQLANQCNYDCKLRKHARSGECFYDEKRNLQCICDYCEY; Brazzein(K5D)) [Brazzein K5D]"
  measured: 0.08
- substance: "E35R: primary brazzein variant: Glu at position 35 of minor-type brazzein substituted with Arg (DKCKKVYENYPVSKCQLANQCNYDCKLRKHARSGRCFYDEKRNLQCICDYCEY; Brazzein(E35R)) [Brazzein E35R]"
  measured: 0.08
- substance: "K29H: primary brazzein variant: Lys at position 29 of minor-type brazzein substituted with His (DKCKKVYENYPVSKCQLANQCNYDCKLRHHARSGECFYDEKRNLQCICDYCEY; Brazzein(K29H)) [Brazzein K29H]"
  measured: 0.05
- substance: "H30D: primary brazzein variant: His at position 30 of minor-type brazzein substituted with Asp (DKCKKVYENYPVSKCQLANQCNYDCKLRKDARSGECFYDEKRNLQCICDYCEY; Brazzein(H30D)) [Brazzein H30D]"
  measured: 0.16
- substance: "E40A: primary brazzein variant: Glu at position 40 of minor-type brazzein substituted with Ala (DKCKKVYENYPVSKCQLANQCNYDCKLRKHARSGECFYDAKRNLQCICDYCEY; Brazzein(E40A)) [Brazzein E40A]"
  measured: 3.3
- substance: "K29D: primary brazzein variant: Lys at position 29 of minor-type brazzein substituted with Asp (DKCKKVYENYPVSKCQLANQCNYDCKLRDHARSGECFYDEKRNLQCICDYCEY; Brazzein(K29D)) [Brazzein K29D]"
  measured: 0.05
- substance: "E40H: primary brazzein variant: Glu at position 40 of minor-type brazzein substituted with His (DKCKKVYENYPVSKCQLANQCNYDCKLRKHARSGECFYDHKRNLQCICDYCEY; Brazzein(E40H)) [Brazzein E40H]"
  measured: 2
- substance: "R42A: primary brazzein variant: Arg at position 42 of minor-type brazzein substituted with Ala (DKCKKVYENYPVSKCQLANQCNYDCKLRKHARSGECFYDEKANLQCICDYCEY; Brazzein(R42A)) [Brazzein R42A]"
  measured: 0.05
- substance: "E35D: primary brazzein variant: Glu at position 35 of minor-type brazzein substituted with Asp (DKCKKVYENYPVSKCQLANQCNYDCKLRKHARSGDCFYDEKRNLQCICDYCEY; Brazzein(E35D)) [Brazzein E35D]"
  measured: 3.3
